Target or system: HIV-1 Env of isolate MGRM-G-024 (subtype G), on pseudovirus (HIV-1)
Test method notes: cell-based or functional assay
Parameter measured: IC50 (µg/mL), neutralization of pseudovirus
Answers are plain numbers, in µg/mL.

Exercise: I have this binder here, PGT-123 (antibody, V domains shown) VH: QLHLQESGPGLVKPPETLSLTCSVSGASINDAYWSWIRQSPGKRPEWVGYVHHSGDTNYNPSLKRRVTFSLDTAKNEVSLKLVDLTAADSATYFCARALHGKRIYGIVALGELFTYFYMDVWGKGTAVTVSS VL: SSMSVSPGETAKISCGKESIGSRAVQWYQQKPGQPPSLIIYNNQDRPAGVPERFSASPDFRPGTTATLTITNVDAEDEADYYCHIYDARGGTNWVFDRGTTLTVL , and I need its recorded IC50 (µg/mL), neutralization of pseudovirus.
Key: 0.032
